molecules and their reported Emax
Biological target: Peroxisome proliferator-activated receptor alpha (Homo sapiens)
Sequence (whole entry): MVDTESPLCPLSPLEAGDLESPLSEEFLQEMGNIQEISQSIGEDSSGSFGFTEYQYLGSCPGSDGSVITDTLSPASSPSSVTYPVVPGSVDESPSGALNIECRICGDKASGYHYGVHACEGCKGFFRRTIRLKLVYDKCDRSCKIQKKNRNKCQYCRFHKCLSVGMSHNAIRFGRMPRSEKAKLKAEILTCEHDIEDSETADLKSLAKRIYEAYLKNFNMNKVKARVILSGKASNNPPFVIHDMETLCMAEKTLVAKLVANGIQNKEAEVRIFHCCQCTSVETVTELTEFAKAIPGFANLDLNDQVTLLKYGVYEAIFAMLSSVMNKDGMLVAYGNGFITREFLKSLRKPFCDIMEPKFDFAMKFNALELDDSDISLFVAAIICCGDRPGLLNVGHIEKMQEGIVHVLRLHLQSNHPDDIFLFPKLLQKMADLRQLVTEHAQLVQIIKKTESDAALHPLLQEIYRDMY
Assay: Transactivation of human Gal4-fused PPARalpha LBD expressed in African green monkey COS7 cells after 24 hrs by luciferase reporter gene assay relative to WY14643
Format: cell-based
EXPERIMENTAL_ENDPOINT: Emax (%)

> print(dat)
                                   molecule  reported.result
1  CCOC(=O)C(Cc1ccc(OCCn2c(=O)sc3cc(C(=O)/C=C/c4cc(OC)cc(OC)c4)ccc32)cc1)OCC(F)(F)F (centres undefined)               21
2  CCOC(=O)C(Cc1ccc(OCCn2c(=O)sc3cc(/C=C/c4cc(O)cc(O)c4)ccc32)cc1)OCC (centres undefined)               76
3  Cc1oc(-c2ccccc2)nc1CCOc1ccc(C[C@H](Nc2ccccc2C(=O)c2ccccc2)C(=O)O)cc1              231
4  COc1ccc(OC(=O)N(CC(=O)O)Cc2ccc(OCCc3nc(-c4ccccc4)oc3C)cc2)cc1               84
